Attribution: ChEMBL document CHEMBL5244260

target: Aldo-keto reductase family 1 member B1 (Homo sapiens, UniProt P15121); experiment: Inhibition of human ALR2 assessed as inhibition constant
Endpoint: Ki
# do not omit the unit; it follows the number

For N#Cc1ccc(CNC(=O)c2ccc(Cl)cc2OCC(=O)O)cc1 on Aldo-keto reductase family 1 member B1 (Homo sapiens, UniProt P15121), measured Ki was 2000 nM

---

target: Tyrosine-protein phosphatase non-receptor type 1 (Homo sapiens, UniProt P18031); assay: Inhibition of PTP1B (unknown origin) using pNPP as substrate
Endpoint: IC50 (nM)
Record the value in nM, omitting the unit from your answer.

For O=C(c1ccccc1)C(Cc1ccc2cc(Br)c(C(F)(F)P(=O)(O)O)cc2c1)(c1ccc2cc(C(F)(F)P(=O)(O)O)c(Br)cc2c1)n1nnc2ccccc21 (stereo unspecified) on Tyrosine-protein phosphatase non-receptor type 1 (Homo sapiens, UniProt P18031), measured IC50 was 5

---

Biological target: UniProtKB P18031
Sequence (P18031 whole entry): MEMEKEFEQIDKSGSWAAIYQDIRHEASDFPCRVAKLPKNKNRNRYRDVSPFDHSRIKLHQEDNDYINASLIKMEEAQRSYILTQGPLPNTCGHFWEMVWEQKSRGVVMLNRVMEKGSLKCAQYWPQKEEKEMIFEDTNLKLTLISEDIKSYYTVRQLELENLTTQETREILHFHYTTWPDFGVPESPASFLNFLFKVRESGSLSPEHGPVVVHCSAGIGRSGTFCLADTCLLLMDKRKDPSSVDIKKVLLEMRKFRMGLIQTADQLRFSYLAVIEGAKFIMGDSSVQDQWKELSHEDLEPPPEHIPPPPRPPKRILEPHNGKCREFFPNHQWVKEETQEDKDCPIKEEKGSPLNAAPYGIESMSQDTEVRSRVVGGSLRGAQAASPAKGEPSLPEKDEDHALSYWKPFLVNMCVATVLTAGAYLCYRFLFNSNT
Assay: Inhibition of PTP1B (1 to 321 residues) (unknown origin) expressed in Escherichia coli BL21 assessed as inhibition constant using pNPP as substrate incubated for 60 min by Michaelis-Menten analysis
Endpoint: Ki (nM)
Record the value in nM, omitting the unit from your answer.

Looking up O=C(O)C(=O)Nc1sc2c(c1C(=O)O)COC(COC1=NS(=O)(=O)c3ccccc31)C2 (stereo unspecified) , I see its Ki listed as 600

---

Target: Tyrosine-protein phosphatase non-receptor type 1 (Homo sapiens, UniProt P18031)
Sequence (P18031 whole entry): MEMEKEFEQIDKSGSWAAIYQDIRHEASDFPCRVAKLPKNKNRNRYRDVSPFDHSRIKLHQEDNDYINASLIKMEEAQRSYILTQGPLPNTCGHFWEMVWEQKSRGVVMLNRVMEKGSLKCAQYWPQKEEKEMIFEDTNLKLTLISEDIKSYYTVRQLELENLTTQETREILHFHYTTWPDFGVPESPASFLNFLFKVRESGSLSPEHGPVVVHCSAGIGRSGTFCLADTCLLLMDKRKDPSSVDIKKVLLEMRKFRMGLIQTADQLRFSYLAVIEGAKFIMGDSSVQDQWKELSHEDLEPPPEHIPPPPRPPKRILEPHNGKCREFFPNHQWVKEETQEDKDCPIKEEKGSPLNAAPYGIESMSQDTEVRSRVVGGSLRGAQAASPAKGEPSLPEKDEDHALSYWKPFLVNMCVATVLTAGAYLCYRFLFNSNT
Assay: Inhibition of PTP1B (unknown origin) using flurogenic substrate by fluorescence plate reader assay
Endpoint: pIC50
Would you please state pIC50, meaning minus log10 of the concentration in mol/L, as a bare number?

Looking up COC(=O)C(O)c1ccc(NC(=O)CCCCn2cc(COc3ccc(-c4cc(C(=O)O)no4)cc3)nn2)cc1 (stereo unspecified) , I see its pIC50 listed as 5.33
